These data points were gathered from patent US20240327502A1.

- STUDY_SYSTEM: T1, hMPV PostF trimer (human metapneumovirus, strain B2)
- T1 construct: also called MPV PostF (dPFv1)
- PROTOCOL: BLI, mAb on anti-human Fc sensor
QUANTITY_MEASURED: Octet binding response (nm)
Enter your answer as a number in nm; do not include the unit.

Reported Octet binding response, binder M3A03 (antibody, V domains shown, IgG) VH: QVQLVQSGAEVKKPGASVKVSCKASAYTFTSYGITWVRQAPGQGLEWMGWISAYRGNTKYAQKLQGRVTMTTDTSTSTASMELRSLRSDDTAVYYCARTSYYDSSYYPIDYWGQGTLVTVSS VL: SYVLTQPPSVSVAPGQTARITCGGNNIGSKSVQWYQQKPGQAPVLVVYDDSDRPSGIPERFSGSNSGNTATLTISRVEAGDEADYYCQVWDSSGDRVVFGGGTKLTVL : ____
0.568

Reported Octet binding response, binder M2E11L (antibody, V domains shown) VH: QVQLVQSGAIMKKPGSSVKVSCKASGGTFTNFAFSWVRQAPGQGLEWMGGIIPFVGPANYAPQFQGRVTITADESTTTAYMELNSLRSEDTAVYYCARVRGFGETAYFYHYYMDVWGKGTTVTVSS VL: QTVVTQEPSLSVSPGGTVTLTCGLSSGSVSTSHFPSWYQQIPGQPPRTLIYSTITRSSGVPDRFSGSILGNKATLTITGAQADDECDYYCVLYLGGGIPHWVFGGGTKLTVL : ____
0.0538

Reported Octet binding response, binder M1A04 (antibody, V domains shown, IgG) VH: EVQLVESGGGLVRPGGSLRLSCAASGFNVRNYYMSWVRQAPGKGLEWISVIYGGGTTFYAGSVKGRFTISRDDSKSTLFLQMNSLRADDTAVYYCARDPGTVMSTENLQGMDVWGQGTTVTVSS VL: DIQMTQSPSSLSASVGDRVTITCRASQTIRSYLNWYQQKPGKAPNLLIYAATSLQSGVPSRFSGSGSGTDFTLTISSLQPEDSATYYCQQSFSTLYSFGQGTRLEIK : ____
0.618

Reported Octet binding response, binder M4A10 (antibody, V domains shown, IgG) VH: QVQLVQSGAEVKKPGASVKVSCKASGYTFNGHYLHWVRQAPGQGLEWMGWINPNSGGTDYAQRFQGRVTMTRGTSISTAYMELSRLTSDDTAVYFCARDNFGFWSASSGRHNWLDSWGQGTLVIVSS VL: NFMLTQPHSVSESPGKTVTISCTRSTGNIASNYVQWYQQRPGSSPTTVIYEDNQRPSAVPDRFSGSIDSSSNSASLTVSGLRTEDEADYYCQSYDSGHHVVFGGGTKLTVL : ____
-0.0388

Reported Octet binding response, binder M2D11 (antibody, V domains shown, IgG) VH: QVQLQQWGAGLLKPSETLSLTCAVSGGSFSGYHWTWIRQPPGKGLEWIGEVDHGGNTNYNPSLMSRVTISVDMSTKQFSLRLTSMTAADTAVYYCARGFGVVINNWFDPWGQGTLVTVTS VL: DIQMTQSPSSLSASVGDRVTITCRASQTISSYLNWYQQKPGKAPNLLIYTVSTLQSGVPSRFSGSGSGTDFTLTISSLQPEDFATYYCQQSYGAPYTFGQGTKLEIK : ____
0.43

Reported Octet binding response, binder M3C04 (antibody, V domains shown, IgG) VH: EVQLVQSGAEVKKPGESLKISCKGSGYNFANYWIGWVRQMPGKGLEWMGIIYPGDSDTRRNPSFQGHVTMSVDQSISTAYLQWSSLKASDTAMYYCARPLAVSAFDIWGQGTMVTVSS VL: DIQMTQSPSSLSASVGDKLTITCRASQSISNYLNWYQQKSGKAPKLLIYAASSLQSGVPSRFSGSGSGTDFTLTISSLQPEDFATYYCQQSASTPHTFGQGTKVEIV : ____
0.409

Reported Octet binding response, binder M4C04 (antibody, V domains shown, IgG) VH: RVTLRESGPALLKPTQTLTLTCTFSGFSLNTYGMSVNWIRQPPGKALEWLSRIDWDGDKYFNTSLKTRLTISKDTSKNQVVLTMTNMEPVDTATYYCAQSVIVPAQSFVSWFDPWGPGTLVTVSS VL: EIVMTQSPATLSVSPGERATLSCRASQSVRSNLAWYQQKPGQAPRLLIYGASSRATGIPARFSGSGSGTEFTLTISSLQSEDLAIYYCQQYNNWPPGAFGQGTKVEIK : ____
0.442

Reported Octet binding response, binder M3E10 (antibody, V domains shown, IgG) VH: QVQLVQSGAEVKKPGSSVKVSCKASGGTINSYAISWVRQAPGQGPEWLGGIIPIFGTANYAQNFPGRVTITADASTSTVYMELSSLRSDDTAIYYCARGTRYIAVMVPSMQDYYFFGMDVWGQGTTVTVSS VL: DIQLTQSPSFLSASVGDRVTITCRASQGISSYLAWYQQKPGQAPKLLIYAASTLQSGVPSRFSGSGSGTEFTLTISSLQPEDFATYYCQQVTSYPFSITFGQGTRLEIK : ____
0.0082

Reported Octet binding response, binder M2D2 (antibody, V domains shown, IgG) VH: QVQLVQSGAEVKKPGASVKVSCKASGYNFDNYYMSWVRQAPGQGLEWLGIIDPSGGRISYAPKFQGRVTLTRDTSTSTVYMELRGLRFEDTALYYCARLEATHEGPWGQGTLVTVSS VL: QSVLTQPPSASGTPGQRVTISCSGSNSNIGSSTVNWYQQLPGTAPKLLIYSDNHRPSGVPDRFSGSRSGTSASLVISGLHSEDEADYYCGTWDDGLNGPYVFGTGTKVTVL : ____
0.454

Reported Octet binding response, binder M4A06 (antibody, V domains shown, IgG) VH: EVQLVESGGGLVRPGGSLRLSCAASGFSLTTDEVNWVRQAPGKGPEWVSFISASGHTIYYADSVKGRFTISRDNGRNSVYLQMNSLRAEDTAVYYCARVGRLGGVGYYYALGPFDLWGQGTMVTVSS VL: EIVLTQSPGTLSLSPGERATLSCRASQSITSNYLAWYQQKPGQAPRLLIYGASSRATGIPDRFSGSGSGTDFTLTISRLQPEDFAVYYCQQYGSSLYIFGQGTKLEIK : ____
0.449
